# peptide exchange yield per entry
# SYSTEM UNDER TEST: T1, HLA-A*02:01 (peptide-receptive MHC class I monomer after UV cleavage of the UV-sensitive ligand) (human)
# T1 construct: MHC monomers loaded by UV-ligand exchange and captured on streptavidin plates
# EXPERIMENT DESCRIPTION: UV ligand-exchange ELISA; exchange yield grade (+ >=10%, ++ >=20%, +++ >=50%, ++++ >=75%)
No end group written: not given here.

Query: Bench note: what peptide exchange yield did ALIEEAYGL [ALIEEAYGL (SEQ ID NO: 63)] show?
Reply: 50 to 75%

Query: Bench note: what peptide exchange yield did ILWHFVASL [ILWHFVASL (SEQ ID NO: 265)] show?
Reply: ≥ 75%

Query: Bench note: what peptide exchange yield did QLYDGATALFL [QLYDGATALFL (SEQ ID NO: 99)] show?
Reply: 20 to 50%

Query: Bench note: what peptide exchange yield did GILDFXVFL (not fully specified) [GILDFZVFL (SEQ ID NO: 242)] show?
Reply: ≥ 75%

Query: Bench note: what peptide exchange yield did ALIRLDDLFL [ALIRLDDLFL (SEQ ID NO: 304)] show?
Reply: 50 to 75%

Query: Bench note: what peptide exchange yield did LLFDQNDKV [LLFDQNDKV (SEQ ID NO: 181)] show?
Reply: 50 to 75%

Query: Bench note: what peptide exchange yield did KIMYTLVSV [KIMYTLVSV (SEQ ID NO: 152)] show?
Reply: 20 to 50%

Query: Bench note: what peptide exchange yield did NLAGENILNPL [NLAGENILNPL (SEQ ID NO: 279)] show?
Reply: 50 to 75%

Query: Bench note: what peptide exchange yield did SLLSPLLSV [SLLSPLLSV (SEQ ID NO: 168)] show?
Reply: 50 to 75%

Query: Bench note: what peptide exchange yield did VMAEAPPGV [VMAEAPPGV (SEQ ID NO: 310)] show?
Reply: 50 to 75%

Query: Bench note: what peptide exchange yield did FLDTSNQHLL [FLDTSNQHLL (SEQ ID NO: 25)] show?
Reply: 50 to 75%

Query: Bench note: what peptide exchange yield did FLIGQGAHV [FLIGQGAHV (SEQ ID NO: 212)] show?
Reply: 50 to 75%

Query: Bench note: what peptide exchange yield did KLLNLISKL [KLLNLISKL (SEQ ID NO: 274)] show?
Reply: ≥ 75%

Query: Bench note: what peptide exchange yield did KLQEQIHRV [KLQEQIHRV (SEQ ID NO: 284)] show?
Reply: 50 to 75%

Query: Bench note: what peptide exchange yield did YQYGAVVTL [YQYGAVVTL (SEQ ID NO: 238)] show?
Reply: 50 to 75%

Query: Bench note: what peptide exchange yield did AISEAQESV [AISEAQESV (SEQ ID NO: 122)] show?
Reply: 20 to 50%
